Measured values drawn from patent US11969464B2 for this set.

# TEST_SYSTEM: HLA-A*02:01 (Homo sapiens, UniProt P04439, D140Y/D185E/D98H/E176V/E277Q/G131W/G231S/I119V/I121R/I166T/I218V/L300P/L318F/N151K/N90K/P208A/P217A/Q86G/Q94H/R138H/R169H/T345S)
# METHOD_DESCRIPTION: MHC binding assay (UV-ligand exchange, anti-β2m ELISA)
# TEST_CONTEXT: peptide exchange yield, binding to HLA-A*02:01
REPORTED_PROPERTY: Peptide exchange

> print(dat)
                                   substance          data.value
 1  6 (NLYNDLTNV; peptide displayed by HLA-A*02) [compound 6]    +++ (≥50% = +++)
 2  1 (ILDSTTIEI; peptide displayed by HLA-A*02) [compound 1]  ++++ (≥75% = ++++)
 3  77 (YLHGFDLSL; peptide displayed by HLA-A*02) [compound 77]  ++++ (≥75% = ++++)
 4  100 (SLLFQDITL; peptide displayed by HLA-A*02) [compound 100]  ++++ (≥75% = ++++)
 5  96 (KLDASLPAL; peptide displayed by HLA-A*02) [compound 96]  ++++ (≥75% = ++++)
 6  82 (FLNPDGSDCTL; peptide displayed by HLA-A*02) [compound 82]  ++++ (≥75% = ++++)
 7  81 (AVDKTQTSV; peptide displayed by HLA-A*02) [compound 81]    +++ (≥50% = +++)
 8  23 (FLGPIVDL; peptide displayed by HLA-A*02) [compound 23]  ++++ (≥75% = ++++)
 9  26 (ILYDGSNIQL; peptide displayed by HLA-A*02) [compound 26]  ++++ (≥75% = ++++)
10  17 (NVDSTILNL; peptide displayed by HLA-A*02) [compound 17]  ++++ (≥75% = ++++)
11  18 (ILDEAKDISF; peptide displayed by HLA-A*02) [compound 18]    +++ (≥50% = +++)
12  55 (KTWDQSIAL; peptide displayed by HLA-A*02) [compound 55]  ++++ (≥75% = ++++)
13  70 (SMASFLKDV; peptide displayed by HLA-A*02) [compound 70]  ++++ (≥75% = ++++)
14  43 (KLLNDLTSI; peptide displayed by HLA-A*02) [compound 43]  ++++ (≥75% = ++++)
15  40 (FLDQTDETL; peptide displayed by HLA-A*02) [compound 40]    +++ (≥50% = +++)
16  102 (WLIDKSMEL; peptide displayed by HLA-A*02) [compound 102]  ++++ (≥75% = ++++)
17  4 (YVWDRTELL; peptide displayed by HLA-A*02) [compound 4]  ++++ (≥75% = ++++)
18  9 (SLDDSLNEL; peptide displayed by HLA-A*02) [compound 9]    +++ (≥50% = +++)

* * *

# TEST_SYSTEM: HLA-A*02:01 (Homo sapiens, UniProt P04439, D140Y/D185E/D98H/E176V/E277Q/G131W/G231S/I119V/I121R/I166T/I218V/L300P/L318F/N151K/N90K/P208A/P217A/Q86G/Q94H/R138H/R169H/T345S)
# METHOD_DESCRIPTION: MHC binding assay (UV-ligand exchange, anti-β2m ELISA)
# TEST_CONTEXT: peptide exchange yield, binding to HLA-A*02:01
REPORTED_PROPERTY: Peptide exchange

> print(dat)
                                   substance  reported.property          data.value
 1  66 (LLDDQTVTF; peptide displayed by HLA-A*02) [compound 66]   Peptide exchange    +++ (≥50% = +++)
 2  54 (KLEERVYDV; peptide displayed by HLA-A*02) [compound 54]   Peptide exchange  ++++ (≥75% = ++++)
 3  38 (AVDGTDARL; peptide displayed by HLA-A*02) [compound 38]   Peptide exchange    +++ (≥50% = +++)
 4  78 (AIDQTITEA; peptide displayed by HLA-A*02) [compound 78]   Peptide exchange    +++ (≥50% = +++)
 5  52 (ILFDDSVFTL; peptide displayed by HLA-A*02) [compound 52]   Peptide exchange  ++++ (≥75% = ++++)
 6  11 (GLVDGSSVTV; peptide displayed by HLA-A*02) [compound 11]   Peptide exchange  ++++ (≥75% = ++++)
 7  12 (FVDEHTIDI; peptide displayed by HLA-A*02) [compound 12]   Peptide exchange    +++ (≥50% = +++)
 8  80 (ALDSSLQLL; peptide displayed by HLA-A*02) [compound 80]   Peptide exchange  ++++ (≥75% = ++++)
 9  67 (LLDTTDVYL; peptide displayed by HLA-A*02) [compound 67]   Peptide exchange    +++ (≥50% = +++)
10  29 (KLLDLTVRI; peptide displayed by HLA-A*02) [compound 29]   Peptide exchange  ++++ (≥75% = ++++)
11  47 (VIDSTLVKV; peptide displayed by HLA-A*02) [compound 47]   Peptide exchange    +++ (≥50% = +++)
12  46 (SLSDVSQAV; peptide displayed by HLA-A*02) [compound 46]   Peptide exchange    +++ (≥50% = +++)
13  42 (IQDTSHLAV; peptide displayed by HLA-A*02) [compound 42]   Peptide exchange    +++ (≥50% = +++)
14  5 (ALPQFFNDV; peptide displayed by HLA-A*02) [compound 5]   Peptide exchange  ++++ (≥75% = ++++)
15  15 (VLDDTLVIF; peptide displayed by HLA-A*02) [compound 15]   Peptide exchange    +++ (≥50% = +++)
16  34 (SLLDGSESAKL; peptide displayed by HLA-A*02) [compound 34]   Peptide exchange  ++++ (≥75% = ++++)
17  24 (QLLGRDISL; peptide displayed by HLA-A*02) [compound 24]   Peptide exchange  ++++ (≥75% = ++++)
18  41 (FLDTSTADV; peptide displayed by HLA-A*02) [compound 41]   Peptide exchange  ++++ (≥75% = ++++)

* * *

# TEST_SYSTEM: HLA-A*02:01 (Homo sapiens, UniProt P04439, D140Y/D185E/D98H/E176V/E277Q/G131W/G231S/I119V/I121R/I166T/I218V/L300P/L318F/N151K/N90K/P208A/P217A/Q86G/Q94H/R138H/R169H/T345S)
# METHOD_DESCRIPTION: MHC binding assay (UV-ligand exchange, anti-β2m ELISA)
# TEST_CONTEXT: peptide exchange yield, binding to HLA-A*02:01
REPORTED_PROPERTY: Peptide exchange

> print(dat)
                                  substance          data.value
1  94 (YLWWVNDQSL; peptide displayed by HLA-A*02) [compound 94]  ++++ (≥75% = ++++)
2  21 (FLNLFDHTL; peptide displayed by HLA-A*02) [compound 21]  ++++ (≥75% = ++++)
3  99 (NLLDHSSMFL; peptide displayed by HLA-A*02) [compound 99]  ++++ (≥75% = ++++)
4  53 (ILTDITGHDV; peptide displayed by HLA-A*02) [compound 53]    +++ (≥50% = +++)
5  22 (HMIDLTIHL; peptide displayed by HLA-A*02) [compound 22]    +++ (≥50% = +++)

* * *

# TEST_SYSTEM: HLA-A*02:01 (Homo sapiens, UniProt P04439, D140Y/D185E/D98H/E176V/E277Q/G131W/G231S/I119V/I121R/I166T/I218V/L300P/L318F/N151K/N90K/P208A/P217A/Q86G/Q94H/R138H/R169H/T345S)
# METHOD_DESCRIPTION: MHC binding assay (UV-ligand exchange, anti-β2m ELISA)
# TEST_CONTEXT: peptide exchange yield, binding to HLA-A*02:01
REPORTED_PROPERTY: Peptide exchange

> print(dat)
                                  substance          data.value
1  59 (SQTDLSPAL; peptide displayed by HLA-A*02) [compound 59]  ++++ (≥75% = ++++)
2  28 (FLLDGTDMFHM; peptide displayed by HLA-A*02) [compound 28]    +++ (≥50% = +++)
3  72 (ALDSTNSEL; peptide displayed by HLA-A*02) [compound 72]  ++++ (≥75% = ++++)
4  93 (YLDGTFRLL; peptide displayed by HLA-A*02) [compound 93]    +++ (≥50% = +++)
5  64 (ILFDPDNSSAL; peptide displayed by HLA-A*02) [compound 64]  ++++ (≥75% = ++++)
6  7 (ALADLTGTV; peptide displayed by HLA-A*02) [compound 7]  ++++ (≥75% = ++++)
7  49 (ALDDYTITF; peptide displayed by HLA-A*02) [compound 49]  ++++ (≥75% = ++++)
8  97 (KLLDGSQRV; peptide displayed by HLA-A*02) [compound 97]    +++ (≥50% = +++)
9  27 (YLFEDISQL; peptide displayed by HLA-A*02) [compound 27]  ++++ (≥75% = ++++)
